# assayed_target: Human BAK-∆TM-His6 (BAK) (Homo sapiens)
# Construct: C-terminus truncated recombinant human BAK containing C-terminal 6× histidine tag (MEAS-BAK); made in house; host or cells: E. coli T7 Express pLac I/Y
# Sequence (Q16611 1-186 limits assumed): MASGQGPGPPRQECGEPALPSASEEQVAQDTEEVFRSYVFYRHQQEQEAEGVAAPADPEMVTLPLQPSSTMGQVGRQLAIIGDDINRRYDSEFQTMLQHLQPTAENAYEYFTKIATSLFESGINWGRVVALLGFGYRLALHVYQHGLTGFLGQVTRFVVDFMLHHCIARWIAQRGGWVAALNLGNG
# method_description: Liposome permeabilization assay (ANTS/DPX dye release from LUVs): activation of WT BAK by BH3 peptides
# Type: biochemical
# Set-up: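 traces normalized between buffer minimum and 3% CHAPS maximum fluorescence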
# assay_setup: 50 μM peptide + 50 nM BAK; AUC 0-88 mins of liposome permeabilization; Experiment-1, mean of N replicates
Quick rule for you: AUC for Experiment-1 (Mean) at 9 or higher means Yes, lower means No.

{"columns": ["substance", "label_class"],
 "data": [
  ["Ac-EDIIRNIARHLAQVGDSYDRSI-NH2 [Y(4)]", "Yes"],
  ["Ac-EDIIRNIARHLAQFGDSMDRSI-NH2 [F(3)]", "Yes"],
  ["Ac-EDIIRNWARHLAQVGDSMDRSI-NH2 [W(1)]", "No"],
  ["Ac-EDIIRNIARHLAQVGDSFDRSI-NH2 [F(4)]", "Yes"]
]}

Turning now to a further substance:
query: Does the substance Ac-EDIIRNIARHYAQVGDSMDRSI-NH2 [Y(2)] have recorded AUC for Experiment-1 (Mean) that is 9 or more?
result: No
